# Tested on: 843126-344-R-J1-PDC complex spheroid viability
# assayInfo: Anticancer human tumor 843126-344-R-J1-PDC patient-derived melanoma cell line growth inhibition [POLQ]
# conditionParameters: second compound 0.0316 µM; first compound 0.0316 µM; active compounds read low
attributeMeasured: viability, T/C

Nc1ccn(C2OC(CO)C(O)C2(F)F)c(=O)n1 (configuration not stated) + COC1C(OC(N)=O)C(O)C(Oc2ccc3c(O)c(NC(=O)c4ccc(O)c(CC=C(C)C)c4)c(=O)oc3c2C)OC1(C)C; 33.5%
CCc1cc2c(N3CCc4c(cc(Cn5ccnc5)cc4-c4cn(C)nc4C(F)(F)F)C3=O)ccnc2c(OC)n1 + Nc1ccc(C#CCN(C(=O)Cc2ncc(C(F)(F)F)cc2C(F)(F)F)c2ccc(F)cc2)nn1; 91.6%
O=c1[nH]cc(F)c(=O)[nH]1 + COC1C(OC(N)=O)C(O)C(Oc2ccc3c(O)c(NC(=O)c4ccc(O)c(CC=C(C)C)c4)c(=O)oc3c2C)OC1(C)C; 97.9%

stdin: Recorded viability, T/C of CC[C@@]1(O)C(=O)OCc2c1cc1n(c2=O)Cc2cc3c(CN(C)C)c(O)ccc3nc2-1 + Nc1ccc(C#CCN(C(=O)Cc2ncc(C(F)(F)F)cc2C(F)(F)F)c2ccc(F)cc2)nn1 , please.
stdout: 71.1%

stdin: Recorded viability, T/C of O=c1[nH]cc(F)c(=O)[nH]1 + Cc1cccc(N(C)C(=O)C2C(O)CCN2c2nc(C)cc(C(F)(F)F)c2C#N)c1 , please.
stdout: 101%

stdin: Recorded viability, T/C of CC[C@@]1(O)C(=O)OCc2c1cc1n(c2=O)Cc2cc3c(CN(C)C)c(O)ccc3nc2-1 + COC1C(OC(N)=O)C(O)C(Oc2ccc3c(O)c(NC(=O)c4ccc(O)c(CC=C(C)C)c4)c(=O)oc3c2C)OC1(C)C , please.
stdout: 57.3%

stdin: Recorded viability, T/C of Nc1ccn(C2OC(CO)C(O)C2(F)F)c(=O)n1 (configuration not stated) + Cc1cccc(N(C)C(=O)C2C(O)CCN2c2nc(C)cc(C(F)(F)F)c2C#N)c1 , please.
stdout: 47.1%

----------
# System: 843126-344-R-J1-PDC complex spheroid viability
# assayInfo: Anticancer human tumor 843126-344-R-J1-PDC cell line growth inhibition [POLQ];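 note: spheroids exposed to drugs for seven days before readout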
# conditionParameters: second compound 3.16 µM; first compound 3.16 µM; active compounds read low
Strictly below 60% in viability, T/C: 1.0. Otherwise: 0.0.

# count of solved cases: 5
O=C(c1cc(Cc2n[nH]c(=O)c3ccccc23)ccc1F)N1CCN(C(=O)C2CC2)CC1 + Nc1ccc(C#CCN(C(=O)Cc2ncc(C(F)(F)F)cc2C(F)(F)F)c2ccc(F)cc2)nn1; 0.0
CCCS(=O)(=O)Nc1ccc(F)c(C(=O)c2c[nH]c3ncc(-c4ccc(Cl)cc4)cc23)c1F + Nc1ccc(C#CCN(C(=O)Cc2ncc(C(F)(F)F)cc2C(F)(F)F)c2ccc(F)cc2)nn1; 0.0
CNCc1ccc(-c2[nH]c3cc(F)cc4c3c2CCNC4=O)cc1 + Nc1ccc(C#CCN(C(=O)Cc2ncc(C(F)(F)F)cc2C(F)(F)F)c2ccc(F)cc2)nn1; 0.0
COc1cc2cc(C(=O)CCC(=O)O)sc2cc1OC + COC1C(OC(N)=O)C(O)C(Oc2ccc3c(O)c(NC(=O)c4ccc(O)c(CC=C(C)C)c4)c(=O)oc3c2C)OC1(C)C; 0.0
CC1COCCN1c1cc(-c2ccnn2C)c2ccnc(-c3ccn[nH]3)c2n1 (configuration not stated) + Nc1ccc(C#CCN(C(=O)Cc2ncc(C(F)(F)F)cc2C(F)(F)F)c2ccc(F)cc2)nn1; 1.0

stdin: Please determine if Nc1ccn(C2OC(CO)C(O)C2(F)F)c(=O)n1 (configuration not stated) + COC1C(OC(N)=O)C(O)C(Oc2ccc3c(O)c(NC(=O)c4ccc(O)c(CC=C(C)C)c4)c(=O)oc3c2C)OC1(C)C is below 60% in terms of viability, T/C.
stdout: 1.0

stdin: Please determine if C=CC(=O)N1CCN(c2nc(=O)n(-c3c(C)ccnc3C(C)C)c3nc(-c4c(O)cccc4F)c(F)cc23)C(C)C1 (configuration not stated) + Nc1ccc(C#CCN(C(=O)Cc2ncc(C(F)(F)F)cc2C(F)(F)F)c2ccc(F)cc2)nn1 is below 60% in terms of viability, T/C.
stdout: 0.0
